Measured values drawn from the supplement of paper PMC10567573 for this set.

B1: EHMT1 (parent)
chain: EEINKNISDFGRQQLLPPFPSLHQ

Variants of: B1
assay.explanation: protein stability index of a GFP-peptide fusion (GPS, HEK-293T) (PSI 1-6); higher = more stable;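 further: lentivirally expressed fusions sorted by FACS into six bins by GFP to DsRed ratio, PSI derived from sequencing read proportions per bin multiplied by bin number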
study.conditions: c terminus: a fixed tail appended
observable: protein stability index
One number for each entry.

Record protein stability index for all entries; do not skip any.
1. P18Y
2. H23V
3. P17K

Reply:
1: 2.94; 2: 2.97; 3: 3.09

Hey, can you go through the list below and give me protein stability index for every item?
1. H23I
2. G11E
3. H23Q
4. S21T

Reply:
[2.93, 3.06, 3.02, 3]

Could I get protein stability index for every one of these entries?
1. F10H
2. P18N
3. F10A
4. I3L
5. N4H

Reply:
1: 2.99; 2: 3.05; 3: 3.04; 4: 2.95; 5: 2.94
